Every entry's value here was drawn from ChEMBL document CHEMBL1153316.

Assay: Inhibition of kallikrein assessed as specific activity at 0.5 mM
Parameters: scale not given: the % may be the effect or the level left
Peptide text beside a SMILES is read from it.
observed.property: Activity

compound="CSCC[C@H](NC(=O)[C@H](CCSC)NC(=O)[C@@H]1CCCN1)C(=O)NCC(=O)N[C@@H](CCCCN)C(=O)N[C@@H](C)C(=O)N[C@@H](CO)C(=O)N1CCC[C@H]1C(=O)N[C@H](C(=O)Nc1ccc([N+](=O)[O-])cc1)C(C)C (HELM PEPTIDE1{P.M.M.G.K.A.S.P.V.[O=[N+]([O-])c1ccc(N[*:1])cc1]}$$$$V2.0)" result="< 1%"
compound=CSCC[C@H](NC(=O)[C@H](CCSC)NC(=O)[C@@H]1CCCN1C(=O)[C@H](CC(C)C)NC(=O)[C@@H](NC(=O)[C@H](CC(N)=O)NC(=O)[C@H](Cc1ccccc1)NC(=O)[C@@H](NC(=O)[C@@H]1CCCN1)C(C)C)[C@H](C)O)C(=O)NCC(=O)N[C@@H](CCCCN)C(=O)N[C@@H](C)C(=O)N[C@@H](CO)C(=O)N1CCC[C@H]1C(=O)N[C@H](C(=O)Nc1ccc([N+](=O)[O-])cc1)C(C)C result="< 1%"
compound="CC(C)[C@H](NC(=O)CNC(=O)CNC(=O)[C@H](CC(=O)O)NC(=O)[C@@H](NC(=O)[C@@H](N)CO)[C@@H](C)O)C(=O)Nc1ccc([N+](=O)[O-])cc1 (HELM PEPTIDE1{S.T.D.G.G.V.[O=[N+]([O-])c1ccc(N[*:1])cc1]}$$$$V2.0)" result="< 1%"
